This collection of values is drawn from ChEMBL document CHEMBL5058577.

- System: HEK-293T
- method-description: Multiplex assay against HEK293T
- Type: toxicity, cell-based
- conditions: human, 24 h, 1 µM, compound concentration 1 uM, replicate 1
Population Mitotic Cells (%) for assorted molecules
Report the figure in % without appending any unit label.

Read the entry CN1CCC(C(=O)c2cccc(NC(=O)c3c(F)cc(F)cc3F)n2)CC1 and write its reported Population Mitotic Cells (%).
73

Note Population Mitotic Cells (%) for the molecule shown: C=CCN1C[C@H](C(=O)N(CCCN(C)C)C(=O)NCC)C[C@@H]2c3cccc4[nH]cc(c34)C[C@H]21
56

###

Entries annotated with measured Population Normal (%)
- System: HEK-293T
- method-description: Multiplex assay against HEK293T
- Assay type: toxicity, cell-based
- conditions: human, 48 h, 1 µM, compound concentration 1 uM, replicate 1
The figure you give is taken to be in %; do not add the unit.

Here is how some molecules turned out for Population Normal (%).
CCn1c(-c2nc3cc(C(=O)N4CCCC(N)C4)ccc3n2C)cc2ccccc21.Cl (stereo unspecified): 94
CN1CCN(c2ccc(Nc3c4ccccc4nc4ccccc34)cc2)CC1.Cl.Cl.O: 96
CN1CCN2c3ccccc3Cc3ccccc3C2C1.Cl (stereo unspecified) [MIANSERIN HYDROCHLORIDE]: 98
Cc1c(Cc2ccc3ccccc3n2)c2cc(F)ccc2n1CC(=O)O: 97
Cc1cc(-c2ccc3c(c2)CC[C@H]3N2CC3(CCN(C(=O)Cc4cn5cc(C)sc5n4)CC3)C2)ncn1: 98

Continue with the molecule presented below.
Look up and report measured Population Normal (%) for this entry: COc1cc2nc(N3CCN(C(=O)c4ccco4)CC3)nc(N)c2cc1OC.Cl [PRAZOSIN HYDROCHLORIDE]
98
